System: adult planthoppers
Protocol Notes: Residual effect on sprayed rice seedlings (Example XV)
Assay type: in vivo
Experimental Setup: concentrate diluted to 400 times; observed 24 hours after release
Readout Type: Mortality (%) After 1 day
In your response, the unit should come after the numeric value.

Below are worked cases with known answers.
* C#CC(OC(=O)C1C(C=C(C)C)C1(C)C)C(C)=Cc1ccccc1 (stereo not drawn) | 100%
* C#CC(C=CCc1ccccc1)OC(=O)C1C(C=C(C)C)C1(C)C (stereo not drawn) [Compound 62, α-Ethynyl-γ-benzylallyl chrysanthemate] | 100%

Lab note: next compound to report on.
# input GET /values?readout=Mortality (%) After 1 day&item= C#CC(C=Cc1ccccc1)OC(=O)C1C(C=C(C)C)C1(C)C (stereo not drawn) [Compound 31, α-Ethynylcinnamyl chrysanthemate]
# output 100%

---

Protocol Notes: Oral acute toxicity in male mice (Example XXI)
Experimental Setup: mouse, in vivo, Table 7, male mice of about 20 g
Readout Type: LD50 at 48 h

# input GET /values?readout=LD50 at 48 h&item= C#CC(OC(=O)C1C(C=C(C)C)C1(C)C)C(=Cc1ccccc1)CC (stereo not drawn) [Compound 63, α-Ethynyl-β-ethylcinnamyl chrysanthemate]
# output > 600 mg/kg

# input Same thing, different molecule: C#CC(OC(=O)C1C(C=C(C)C)C1(C)C)C(C)=Cc1ccccc1 (stereo not drawn) [Compound 32]
# output > 500 mg/kg

# input Same thing, different molecule: C#CC(OC(=O)C1C(C=C(C)C)C1(C)C)C(C)=Cc1ccccc1Cl (stereo not drawn) [Compound 34]
# output > 600 mg/kg

---

Tested on: adult planthoppers
Protocol Notes: Residual effect on sprayed rice seedlings (Example XV)
Type: in vivo
Experimental Setup: concentrate diluted to 400 times; observed 24 hours after release
Binary classification by Mortality (%) After 6 days, with 70% as an inclusive lower bound for Criterion met; all other cases are Criterion not met.

• C#CC(OC(=O)C1C(C=C(C)C)C1(C)C)C(C)=Cc1ccccc1 (stereo not shown) = Criterion met
• C#CC(OC(=O)C1C(C)(C)C1(C)C)C(C)=Cc1ccccc1 (stereo not shown) = Criterion met
• C#CC(OC(=O)C1C(C=C(C)C)C1(C)C)C(=Cc1ccccc1)CC (stereo not drawn) [Compound 63, α-Ethynyl-β-ethylcinnamyl chrysanthemate] = Criterion not met
• C#CC(C=CCc1ccccc1)OC(=O)C1C(C=C(C)C)C1(C)C (stereo not drawn) [Compound 62, α-Ethynyl-γ-benzylallyl chrysanthemate] = Criterion met
• C#CC(OC(=O)C1C(C=C2CCCC2)C1(C)C)C(C)=Cc1ccccc1 (stereo not shown) = Criterion not met

# input Please indicate if the recorded Mortality (%) After 6 days for CNC(=O)Oc1ccc(C)c(C)c1 [Meobal, 3,4-Dimethylphenyl-N-methylcarbamate, reference compound] meets or exceeds 70%.
# output Criterion not met

# input Same thing, different compound: C#CC(C=Cc1ccccc1)OC(=O)C1C(C=C(C)C)C1(C)C (stereo not drawn) [Compound 31, α-Ethynylcinnamyl chrysanthemate]
# output Criterion met

---

Below is a list of entries, each paired with its recorded LD50 at 48 h value.
Protocol Notes: Oral acute toxicity in male mice (Example XXI)
Experimental Setup: mouse, in vivo, Table 7, male mice of about 20 g

Below are worked cases with known answers.
- C#CC(OC(=O)C1C(C=C(C)C)C1(C)C)C(C)=Cc1ccc2c(c1)OCO2 (stereo not shown): > 600 mg/kg
- C#CC(OC(=O)C1C(C=C(C)C)C1(C)C)C(C)=Cc1ccc(C)cc1 (stereo not shown): > 600 mg/kg
- C#CC(OC(=O)C1C(C=C(C)C)C1(C)C)C(C)=Cc1ccc(C(C)C)cc1 (stereo not shown): > 600 mg/kg

Lab note: next molecule to report on.
# input GET /values?readout=LD50 at 48 h&item= C#CC(C=Cc1ccccc1)OC(=O)C1C(C=C(C)C)C1(C)C (stereo not drawn) [Compound 31, α-Ethynylcinnamyl chrysanthemate]
# output > 500 mg/kg
